molecular target: Progesterone receptor (Homo sapiens) (UniProt P06401); experiment: qHTS assay to identify small molecule agonists of the progesterone receptor (PR) signaling pathway (AID 1346784); conditions: PR-UAS-bla HEK293T, beta-lactamase FRET ratio, 16 h; series mostly up to 92.4 µM; further: nearly all actives have a fitted effect of over 30% in size
Sequence (P06401 whole entry, looked up): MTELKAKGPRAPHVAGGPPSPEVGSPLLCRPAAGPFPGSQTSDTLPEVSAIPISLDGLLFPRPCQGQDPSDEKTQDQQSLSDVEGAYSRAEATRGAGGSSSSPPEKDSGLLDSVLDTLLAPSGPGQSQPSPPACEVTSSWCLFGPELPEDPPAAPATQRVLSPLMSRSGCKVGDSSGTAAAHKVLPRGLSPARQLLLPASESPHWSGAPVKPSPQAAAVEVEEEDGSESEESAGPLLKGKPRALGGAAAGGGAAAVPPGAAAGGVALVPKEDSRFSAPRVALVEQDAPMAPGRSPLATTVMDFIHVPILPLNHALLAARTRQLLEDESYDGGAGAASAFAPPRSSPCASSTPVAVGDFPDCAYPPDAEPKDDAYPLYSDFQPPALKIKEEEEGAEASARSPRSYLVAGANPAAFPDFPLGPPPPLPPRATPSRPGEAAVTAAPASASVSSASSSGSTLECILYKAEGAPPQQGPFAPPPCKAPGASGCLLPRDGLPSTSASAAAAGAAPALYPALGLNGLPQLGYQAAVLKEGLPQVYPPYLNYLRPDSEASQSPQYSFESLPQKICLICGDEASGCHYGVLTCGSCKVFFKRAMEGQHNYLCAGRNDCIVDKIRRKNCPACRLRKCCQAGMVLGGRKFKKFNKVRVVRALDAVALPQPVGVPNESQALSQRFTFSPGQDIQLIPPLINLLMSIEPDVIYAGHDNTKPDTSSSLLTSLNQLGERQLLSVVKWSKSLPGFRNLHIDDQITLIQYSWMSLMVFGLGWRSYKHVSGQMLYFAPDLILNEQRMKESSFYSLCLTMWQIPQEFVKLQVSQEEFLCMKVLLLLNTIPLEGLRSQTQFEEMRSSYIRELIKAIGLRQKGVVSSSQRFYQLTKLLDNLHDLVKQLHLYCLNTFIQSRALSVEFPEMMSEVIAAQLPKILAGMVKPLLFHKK
Records with an inconclusive call do not appear. The source made the active and inactive calls. The call rests on the fitted dose curve.
TEST_READOUT: outcome

Below: 8 compounds and their reported outcome.
INSERT INTO results (compound, result) VALUES
  ('CCCCCCC(=O)O', 'inactive'),
  ('CO[Si](CCCNCCN)(OC)OC', 'inactive'),
  ('CN1CCCC1=O', 'inactive'),
  ('Nc1cccc(C(F)(F)F)c1', 'inactive'),
  ('OC1CCCCC1', 'inactive'),
  ('COc1ccccc1[N+](=O)[O-]', 'inactive'),
  ('CC[N+](CC)(CC(=O)Nc1c(C)cccc1C)Cc1ccccc1', 'inactive'),
  ('CCCN(CCC)C(=O)SCC', 'inactive');

Please turn your attention to the following entry.
stdin: Requested read-out outcome, target or system Progesterone receptor (Homo sapiens) (UniProt P06401), entry CCCCCCCCCCCCCC(=O)O
stdout: inactive

###

experiment: qHTS RealTime-Glo MT Cell Viability Assay in HEK293 cells - 8 hour (AID 1224887); conditions: RealTime-Glo luminescence; series mostly up to 76.8 µM; further: nearly all actives have a fitted effect of over 50% in size
Results filed as inconclusive are left out. Active and inactive are the calls of the source. The call rests on the fitted dose curve; in most records, active means well fitted cell-killing curve with a large enough effect in the repeat runs; inconclusive means weak or mixed curves, or effect the other way; inactive means flat fitted curve, though single readings scatter.
Just give me one of these, please: active, inactive

stdin: State the result this test recorded for C=C1C[C@]23C[C@@]1(O)CC[C@H]2[C@@]12C=C[C@H](O)[C@@](C)(C(=O)O1)[C@H]2[C@@H]3C(=O)O .
stdout: inactive

stdin: State the result this test recorded for OCCOCCOCCOCCOCCO .
stdout: inactive

stdin: State the result this test recorded for OCC(O)CS (centres undefined) .
stdout: inactive

stdin: State the result this test recorded for CN=C(NC#N)NCCSCc1nc[nH]c1C .
stdout: inactive

stdin: State the result this test recorded for O=C1CCCCCCCCCCC1 .
stdout: inactive

stdin: State the result this test recorded for CCCCCCCC(=O)O .
stdout: inactive

stdin: State the result this test recorded for c1cnc2c(c1)ccc1cccnc12 .
stdout: inactive

stdin: State the result this test recorded for COC(=O)/C=C\C(=O)OC .
stdout: inactive

stdin: State the result this test recorded for CCCCCCC(=O)O .
stdout: inactive

stdin: State the result this test recorded for O=C1OC(=O)c2c(Cl)c(Cl)c(Cl)c(Cl)c21 .
stdout: inactive

stdin: State the result this test recorded for O=[N+]([O-])c1ccccc1C(F)(F)F .
stdout: inactive

stdin: State the result this test recorded for CO[Si](CCCNCCN)(OC)OC .
stdout: inactive

stdin: State the result this test recorded for C[n+]1ccn(CCO)c1 .
stdout: inactive

stdin: State the result this test recorded for C[Si](C)(C)N[Si](C)(C)C .
stdout: inactive

stdin: State the result this test recorded for OCc1ccc(Cl)cc1Cl .
stdout: inactive

stdin: State the result this test recorded for COC(=O)OC .
stdout: inactive

stdin: State the result this test recorded for Nc1cccc(N)n1 .
stdout: inactive

stdin: State the result this test recorded for CC(=O)CC(=O)N(C)C .
stdout: inactive

stdin: State the result this test recorded for NCCNCCNCCN .
stdout: inactive

stdin: State the result this test recorded for O=C(O)Cc1c[nH]c2ccccc12 .
stdout: inactive

stdin: State the result this test recorded for CCCCCC(C)=O .
stdout: inactive

stdin: State the result this test recorded for COc1ccccc1[N+](=O)[O-] .
stdout: inactive

stdin: State the result this test recorded for CCCCCNCCCCC .
stdout: inactive

stdin: State the result this test recorded for CC(CN1c2ccccc2Sc2ccccc21)N(C)C (centres undefined) .
stdout: active

stdin: State the result this test recorded for CC(C)=CCC/C(C)=C/C=O .
stdout: inactive

stdin: State the result this test recorded for CC(=O)OC/C=C(\C)CCC=C(C)C .
stdout: inactive

stdin: State the result this test recorded for CCCCCCCCC(=O)O .
stdout: inactive

stdin: State the result this test recorded for Cc1cc(CC(=O)O)n(C)c1C(=O)c1ccc(Cl)cc1 .
stdout: inactive

stdin: State the result this test recorded for C=C(CC(=O)O)C(=O)O .
stdout: inactive

stdin: State the result this test recorded for Cc1ccc(C)c(S(=O)(=O)O)c1 .
stdout: inactive

stdin: State the result this test recorded for O=[N+]([O-])c1cc(C(F)(F)F)ccc1Cl .
stdout: inactive

stdin: State the result this test recorded for COc1ccc([C@@H]2CC(=O)c3c(O)cc(O[C@@H]4O[C@H](CO[C@@H]5O[C@@H](C)[C@H](O)[C@@H](O)[C@H]5O)[C@@H](O)[C@H](O)[C@H]4O)cc3O2)cc1OC .
stdout: inactive

stdin: State the result this test recorded for C=C(C)CC(C)(C)C .
stdout: inactive

stdin: State the result this test recorded for Cc1ccccc1Cl .
stdout: inactive

stdin: State the result this test recorded for CCN(CC)CCNC(=O)c1ccc(N)cc1 .
stdout: inactive

stdin: State the result this test recorded for Cc1ccccc1C=O .
stdout: inactive

stdin: State the result this test recorded for CC(O)CNCC(C)O (centres undefined) .
stdout: inactive

stdin: State the result this test recorded for CC[N+](CC)(CC(=O)Nc1c(C)cccc1C)Cc1ccccc1 .
stdout: inactive

stdin: State the result this test recorded for O=C(c1ccccc1)c1ccc(O)c(O)c1O .
stdout: inactive

stdin: State the result this test recorded for CN1CCCC1=O .
stdout: inactive

stdin: State the result this test recorded for CC(=O)OCCC(C)C .
stdout: inactive

stdin: State the result this test recorded for O=C(O)C1=NN(c2ccc(S(=O)(=O)O)cc2)C(=O)C1 .
stdout: inactive

stdin: State the result this test recorded for CC(C=O)Cc1ccc(C(C)(C)C)cc1 (centres undefined) .
stdout: inactive

stdin: State the result this test recorded for CC(=O)OC(C)(C)C1CC=C(C)CC1 (centres undefined) .
stdout: inactive

stdin: State the result this test recorded for Cc1cc(C)cc(O)c1 .
stdout: inactive

stdin: State the result this test recorded for CCn1cc(C(=O)O)c(=O)c2cc3c(cc21)OCO3 .
stdout: inactive

stdin: State the result this test recorded for COC(=O)CCCCC(=O)OC .
stdout: inactive

stdin: State the result this test recorded for Cc1ccc(C(C)C)cc1 .
stdout: inactive

stdin: State the result this test recorded for CC/C(C)=N/O .
stdout: inactive

stdin: State the result this test recorded for O=Cc1ccc(CO)o1 .
stdout: inactive

stdin: State the result this test recorded for CCc1cccc(CC)c1N .
stdout: inactive

stdin: State the result this test recorded for CC1=CC(=O)CC(C)(C)C1 .
stdout: inactive

stdin: State the result this test recorded for CC(=O)c1nccs1 .
stdout: inactive

stdin: State the result this test recorded for CC(=O)Nc1ccc(CC(=O)O)cc1 .
stdout: inactive

stdin: State the result this test recorded for OB(O)O .
stdout: inactive

stdin: State the result this test recorded for CCc1cccc(O)c1 .
stdout: inactive

stdin: State the result this test recorded for COc1c(Cl)ccc(Cl)c1C(=O)O .
stdout: inactive

stdin: State the result this test recorded for Nc1cccc(C(F)(F)F)c1 .
stdout: inactive

stdin: State the result this test recorded for Clc1cccc(Cl)c1NC1=NCCN1 .
stdout: inactive

stdin: State the result this test recorded for O=c1c(O)c(-c2ccc(O)c(O)c2)oc2cc(O)cc(O)c12 .
stdout: inactive

stdin: State the result this test recorded for O=C(Cl)c1ccc(C(=O)Cl)cc1 .
stdout: inactive

stdin: State the result this test recorded for C1CCCNCC1 .
stdout: inactive

stdin: State the result this test recorded for Cc1ccncc1 .
stdout: inactive

stdin: State the result this test recorded for CCCOCC(C)O (centres undefined) .
stdout: inactive

###

test: qHTS assay to identify small molecule agonists of the endoplasmic reticulum stress response signaling pathway - cell viability counter screen (AID 1159517); conditions: ESRE-bla HeLa viability, CellTiter-Glo luminescence, 5 h; series mostly up to 61 µM;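 further: HeLa cells carrying an ER stress response element beta-lactamase reporter; nearly all actives have a fitted effect of over 50% in size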
Results filed as inconclusive are left out. Calls of active or inactive are those of the source. Calls follow the shape of the full dose curve.
TEST_READOUT: outcome

INSERT INTO measurements (compound, test_readout, result) VALUES
  ('Cc1ccccc1C=O', 'outcome', 'inactive'),
  ('Clc1cccc(Cl)c1NC1=NCCN1', 'outcome', 'inactive'),
  ('CC(=O)OC(C)(C)C1CC=C(C)CC1 (stereo not drawn)', 'outcome', 'inactive'),
  ('COCN(COC)c1nc(N(COC)COC)nc(N(COC)COC)n1', 'outcome', 'inactive'),
  ('C=CC(=O)NCOCCCC', 'outcome', 'inactive');

stdin: What does the record list as outcome for N#CCC(=O)O ?
stdout: inactive

stdin: What does the record list as outcome for CCCN(CCC)C(=O)SCC ?
stdout: inactive

stdin: What does the record list as outcome for CCCCCCCCC(=O)O ?
stdout: inactive

###

assay: A CellTox Green Cytotoxicity Assay to monitor cytotoxicity in HepG2 cells - 40 hour (AID 1224879); conditions: CellTox Green fluorescence; series mostly up to 76.8 µM; further: nearly all actives have a fitted effect of over 40% in size
Results filed as inconclusive are left out. Activity calls are given as the source filed them. The call rests on the fitted dose curve; in most records, active means well fitted activation curve with a large enough effect in the repeat runs; inconclusive means weak or mixed curves; inactive means flat fitted curve, though single readings scatter.
TEST_READOUT: outcome

INSERT INTO results (compound, result) VALUES
  ('COc1ccc(N)c(OC)c1', 'inactive'),
  ('Cc1cc(C)cc(O)c1', 'inactive'),
  ('CC/C(C)=N/O', 'inactive'),
  ('Brc1ccc(Oc2ccc(Br)cc2)cc1', 'inactive'),
  ('CN=C(NC#N)NCCSCc1nc[nH]c1C', 'inactive');

stdin: What does the record list as outcome for CC(=O)OC(C)(C)C1CC=C(C)CC1 (centres undefined) ?
stdout: inactive

stdin: What does the record list as outcome for OCc1ccc(Cl)cc1Cl ?
stdout: inactive
